Origin of measurements: ChEMBL document CHEMBL3351382

# test-protocol: Antioxidant activity assessed as trolox equivalent of ferric ion reducing activity using fe3+-TPTZ at 200 ug/ml by FRAP assay
# Assay type: physicochemical
quantity-name: Activity

Reference set, count: 5
[
  {
    "molecular-string": "O=C(Cn1nc(Cc2cccs2)n(/N=C/c2cccnc2)c1=O)N/N=C/c1cccnc1",
    "Activity": "16 µM"
  },
  {
    "molecular-string": "O=C(Cn1nc(Cc2cccs2)n(/N=C/c2ccccc2)c1=O)N/N=C/c1ccccc1",
    "Activity": "35 µM"
  },
  {
    "molecular-string": "Cc1ccc(-n2c(S)nnc2Cn2nc(Cc3cccs3)n(N)c2=O)cc1",
    "Activity": "54 µM"
  },
  {
    "molecular-string": "O=C(Cn1nc(Cc2cccs2)n(/N=C/c2ccco2)c1=O)N/N=C/c1ccco1",
    "Activity": "79 µM"
  },
  {
    "molecular-string": "Cc1ccc(NC(=S)NNC(=O)Cn2nc(Cc3cccs3)n(N)c2=O)cc1",
    "Activity": "1257 µM"
  }
]

Field: next molecule
Query string: Returns the measured Activity for the input molecule. Input: Nn1c(Cc2cccs2)nn(CC(=O)NNC(=S)Nc2ccc(Br)cc2)c1=O
Result string: 635 µM

* * *

# test-protocol: Antioxidant activity assessed as DPPH scavenging activity at 200 ug/ml after 60 mins by spectrophotometry
# Format: physicochemical
# conditions-used: 1 h
quantity-name: Activity (%)
Record the value in %, omitting the unit from your answer.

[
  {
    "molecular-string": "NNC(=O)Cn1nc(Cc2cccs2)n(N)c1=O",
    "unit-info": "%",
    "observed": 1.9
  },
  {
    "molecular-string": "Nn1c(Cc2cccs2)nn(Cc2nnc(S)n2-c2ccc(F)cc2)c1=O",
    "unit-info": "%",
    "observed": 31.7
  },
  {
    "molecular-string": "CCOC(=O)Cn1nc(Cc2cccs2)n(N)c1=O",
    "unit-info": "%",
    "observed": 10
  },
  {
    "molecular-string": "O=C(Cn1nc(Cc2cccs2)n(/N=C/c2ccco2)c1=O)N/N=C/c1ccco1",
    "unit-info": "%",
    "observed": 30.9
  },
  {
    "molecular-string": "Nn1c(Cc2cccs2)nn(Cc2nnc(S)n2-c2ccc(Br)cc2)c1=O",
    "unit-info": "%",
    "observed": 22.1
  }
]

Query string: Name the recorded Activity for Cc1ccc(-n2c(S)nnc2Cn2nc(Cc3cccs3)n(N)c2=O)cc1 .
Result string: 23.9

Query string: Sample Nn1c(Cc2cccs2)nn(CC(=O)N/N=C/c2ccco2)c1=O — what was its Activity?
Result string: 9.7

Query string: # input molecule: Nn1c(Cc2cccs2)nn(Cc2nnc(S)n2-c2ccccc2)c1=O ; wanted: its Activity
Result string: 62.7

* * *

# System: Listeria monocytogenes
# test-protocol: Antimicrobial activity against Listeria monocytogenes ATCC 43251 after 24 hrs by agar dilution method
# Assay type: functional, organism-based
Active and inactive are the calls of the source. The rule behind the calls is not given here.
quantity-name: MIC

Use the examples below as a reference point.
[
  {
    "molecular-string": "COc1ccc(/C=N/NC(=O)Cn2nc(Cc3cccs3)n(/N=C/c3ccc(OC)cc3)c2=O)cc1",
    "MIC": "inactive"
  },
  {
    "molecular-string": "Nn1c(Cc2cccs2)nn(CC(=O)N/N=C/c2cccs2)c1=O",
    "MIC": "inactive"
  },
  {
    "molecular-string": "Cc1ccc(NC(=S)NNC(=O)Cn2nc(Cc3cccs3)n(N)c2=O)cc1",
    "MIC": "inactive"
  },
  {
    "molecular-string": "NNC(=O)Cn1nc(Cc2cccs2)n(N)c1=O",
    "MIC": "inactive"
  }
]

Query string: Give its MIC value. Item: O=C(Cn1nc(Cc2cccs2)n(/N=C/c2cccnc2)c1=O)N/N=C/c1cccnc1
Result string: inactive

Query string: Bench note: what MIC did Nn1c(Cc2cccs2)nn(Cc2nnc(S)n2-c2ccc(F)cc2)c1=O show?
Result string: inactive

Query string: What MIC value was documented for this molecule, Nn1c(Cc2cccs2)nn(CC(=O)N/N=C/c2ccco2)c1=O ?
Result string: inactive

Query string: Form field: reported MIC of Nn1c(Cc2cccs2)nn(CC(=O)NNC(=S)Nc2ccccc2)c1=O
Result string: inactive

Query string: For O=C(Cn1nc(Cc2cccs2)n(/N=C/c2ccco2)c1=O)N/N=C/c1ccco1 , what is its reported MIC?
Result string: inactive

Query string: What does the record list as MIC for Cc1ccc(-n2c(S)nnc2Cn2nc(Cc3cccs3)n(N)c2=O)cc1 ?
Result string: inactive

* * *

# System: Bacillus cereus
# test-protocol: Antimicrobial activity against Bacillus cereus 709 Roma after 24 hrs by agar dilution method
# Format: functional
The source made the active and inactive calls. No cut-off for these calls is given here.
Could you please pick one outcome from this set? 1 (yes) = active, 0 (no) = inactive

Example entries begin here.
[
  {
    "molecular-string": "Nn1c(Cc2cccs2)nn(Cc2nnc(S)n2-c2ccccc2)c1=O",
    "test-target": "Bacillus cereus",
    "category-label": "0 (no)"
  },
  {
    "molecular-string": "CCOC(=O)Cn1nc(Cc2cccs2)n(N)c1=O",
    "test-target": "Bacillus cereus",
    "category-label": "0 (no)"
  },
  {
    "molecular-string": "NNC(=O)Cn1nc(Cc2cccs2)n(N)c1=O",
    "test-target": "Bacillus cereus",
    "category-label": "0 (no)"
  },
  {
    "molecular-string": "COc1ccc(/C=N/NC(=O)Cn2nc(Cc3cccs3)n(N)c2=O)cc1",
    "test-target": "Bacillus cereus",
    "category-label": "0 (no)"
  },
  {
    "molecular-string": "Cc1ccc(NC(=S)NNC(=O)Cn2nc(Cc3cccs3)n(N)c2=O)cc1",
    "test-target": "Bacillus cereus",
    "category-label": "0 (no)"
  }
]

Query string: Hi team, can someone confirm the assay call for Nn1c(Cc2cccs2)nn(CC(=O)NNC(=S)Nc2ccc(F)cc2)c1=O ?
Result string: 0 (no)

Query string: Short answer needed: outcome of this test for Nn1c(Cc2cccs2)nn(CC(=O)N/N=C/c2cccs2)c1=O ?
Result string: 0 (no)

* * *

# Test system: Staphylococcus aureus
# test-protocol: Antimicrobial activity against Staphylococcus aureus ATCC 25923 after 24 hrs by agar dilution method
# Format: functional
# conditions-used: ATCC 25923, 24 h
Measured MIC of individual entries
Response body: numeric value in µg/mL, unit text excluded.

[
  {
    "molecular-string": "Nn1c(Cc2cccs2)nn(CC(=O)NNC(=S)Nc2ccccc2)c1=O",
    "MIC [µg/mL]": 2520
  }
]

Query string: Give recorded MIC with Staphylococcus aureus for the following compound: Nn1c(Cc2cccs2)nn(CC(=O)NNC(=S)Nc2ccc(Br)cc2)c1=O
Result string: 950

* * *

# test-protocol: Antioxidant activity assessed as trolox equivalent of ferric ion reducing activity using fe3+-TPTZ at 200 ug/ml by FRAP assay
# Type: physicochemical
Activity by entry:
Field: numeric (µM). Do not append units.

These recorded examples may help you get a feel for the data.
[
  {
    "molecular-string": "NNC(=O)Cn1nc(Cc2cccs2)n(N)c1=O",
    "Activity (µM)": 1368
  },
  {
    "molecular-string": "COc1ccc(/C=N/NC(=O)Cn2nc(Cc3cccs3)n(/N=C/c3ccc(OC)cc3)c2=O)cc1",
    "Activity (µM)": 54
  },
  {
    "molecular-string": "Nn1c(Cc2cccs2)nn(Cc2nnc(S)n2-c2ccc(F)cc2)c1=O",
    "Activity (µM)": 39
  },
  {
    "molecular-string": "Nn1c(Cc2cccs2)nn(Cc2nnc(S)n2-c2ccccc2)c1=O",
    "Activity (µM)": 11
  }
]

Query string: Value lookup for Activity; key = CCOC(=O)Cn1nc(Cc2cccs2)n(N)c1=O
Result string: 14

Query string: Data request, read-out Activity, for Nn1c(Cc2cccs2)nn(CC(=O)N/N=C/c2ccccc2)c1=O
Result string: 40

Query string: Reported Activity for Nn1c(Cc2cccs2)nn(CC(=O)N/N=C/c2cccnc2)c1=O : what is it?
Result string: 26

Query string: Any idea what its Activity is? The compound is O=C(Cn1nc(Cc2cccs2)n(/N=C/c2cccs2)c1=O)N/N=C/c1cccs1
Result string: 27

Query string: Look up Activity for this compound: Nn1c(Cc2cccs2)nn(CC(=O)N/N=C/c2ccco2)c1=O
Result string: 10

Query string: Consider the compound shown here: Nn1c(Cc2cccs2)nn(CC(=O)NNC(=S)Nc2ccc(F)cc2)c1=O What is its recorded Activity?
Result string: 503

* * *

# Test system: Bacillus cereus
# test-protocol: Antimicrobial activity against Bacillus cereus 709 Roma after 24 hrs by agar dilution method
# Assay type: functional
The source made the active and inactive calls. The calls are words filed in the database; no cut-off is given here.
quantity-name: MIC

Worked examples, 10 compounds total:
[
  {
    "molecular-string": "Nn1c(Cc2cccs2)nn(Cc2nnc(S)n2-c2ccc(Br)cc2)c1=O",
    "MIC": "1750 µg/mL"
  },
  {
    "molecular-string": "Nn1c(Cc2cccs2)nn(CC(=O)NNC(=S)Nc2ccccc2)c1=O",
    "MIC": "5050 µg/mL"
  },
  {
    "molecular-string": "Nn1c(Cc2cccs2)nn(CC(=O)NNC(=S)Nc2ccc(Br)cc2)c1=O",
    "MIC": "950 µg/mL"
  },
  {
    "molecular-string": "O=C(Cn1nc(Cc2cccs2)n(/N=C/c2cccs2)c1=O)N/N=C/c1cccs1",
    "MIC": "inactive"
  },
  {
    "molecular-string": "Nn1c(Cc2cccs2)nn(CC(=O)N/N=C/c2ccco2)c1=O",
    "MIC": "inactive"
  },
  {
    "molecular-string": "O=C(Cn1nc(Cc2cccs2)n(/N=C/c2cccnc2)c1=O)N/N=C/c1cccnc1",
    "MIC": "inactive"
  },
  {
    "molecular-string": "Nn1c(Cc2cccs2)nn(CC(=O)N/N=C/c2cccnc2)c1=O",
    "MIC": "inactive"
  },
  {
    "molecular-string": "O=C(Cn1nc(Cc2cccs2)n(/N=C/c2ccccc2)c1=O)N/N=C/c1ccccc1",
    "MIC": "inactive"
  },
  {
    "molecular-string": "Nn1c(Cc2cccs2)nn(Cc2nnc(S)n2-c2ccc(F)cc2)c1=O",
    "MIC": "inactive"
  },
  {
    "molecular-string": "Nn1c(Cc2cccs2)nn(CC(=O)N/N=C/c2ccccc2)c1=O",
    "MIC": "inactive"
  }
]

Query string: What measured MIC goes with COc1ccc(/C=N/NC(=O)Cn2nc(Cc3cccs3)n(/N=C/c3ccc(OC)cc3)c2=O)cc1 ?
Result string: inactive

Query string: So what does the record say about MIC for O=C(Cn1nc(Cc2cccs2)n(/N=C/c2ccco2)c1=O)N/N=C/c1ccco1 ?
Result string: inactive

Query string: Look up MIC: Cc1ccc(-n2c(S)nnc2Cn2nc(Cc3cccs3)n(N)c2=O)cc1
Result string: inactive
